Hey, just so you know, these numbers are from PubChem BioAssay AID328.

# System: BDF1 mice, P388 leukemia ip, median survival T/C
# MEASUREMENT PROTOCOL: NCI In Vivo Anticancer Drug Screen. Data for tumor model P388 Leukemia (intraperitoneal) in B6D2F1 (BDF1) mice
# RUN PARAMETERS: endpoint: median survival time; dose: 50.0 mg/kg/injection; schedule: Q04DX003 (ip); vehicle: water; higher = longer survival
Toxic doses and inconclusive results are not listed.
Let's look at some molecules and their measured T/C.

stdin: Which measured T/C value corresponds to CCOC(=O)c1cnn(C)c1N ?
stdout: 99 % of control

stdin: Which measured T/C value corresponds to COc1cc2ccncc2cc1O ?
stdout: 101 % of control

stdin: Which measured T/C value corresponds to C#CCOCC(O)CO (configuration not stated) ?
stdout: 95 % of control
